Molecular target: Serine/threonine-protein kinase Chk1 (Homo sapiens, UniProt O14757)
Sequence (O14757 whole entry): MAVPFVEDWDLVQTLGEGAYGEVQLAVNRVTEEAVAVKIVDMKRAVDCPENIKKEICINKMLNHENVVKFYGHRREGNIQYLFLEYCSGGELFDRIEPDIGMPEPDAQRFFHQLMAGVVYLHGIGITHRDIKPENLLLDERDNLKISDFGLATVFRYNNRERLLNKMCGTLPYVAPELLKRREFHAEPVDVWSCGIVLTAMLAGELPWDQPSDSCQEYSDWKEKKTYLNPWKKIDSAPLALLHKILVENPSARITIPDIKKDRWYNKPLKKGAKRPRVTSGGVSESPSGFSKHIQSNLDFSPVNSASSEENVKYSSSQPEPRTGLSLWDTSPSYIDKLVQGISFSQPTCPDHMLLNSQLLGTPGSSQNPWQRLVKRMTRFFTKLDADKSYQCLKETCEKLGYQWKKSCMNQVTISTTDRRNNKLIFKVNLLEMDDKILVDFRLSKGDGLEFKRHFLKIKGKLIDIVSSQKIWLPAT
pIC50: −log10 of the molar value.
Everything with pIC50 lower than 6 is Criterion not met; everything else, including exactly 6, is Criterion met.

# check: pIC50 of `COc1cc(-c2ccc3c(c2)NC(=O)/C3=C\c2c[nH]c3ncccc23)ccc1O` is greater than or equal to 6
Criterion met

Next:
API: above_or_equal(metric=pIC50, cutoff=6) for item `COc1cc(-c2ccc3c(c2)NC(=O)/C3=C\c2ncc[nH]2)ccc1O`
Criterion met

hey, is pIC50 for this one >= 6? COc1cc(-c2ccc3c(c2)NC(=O)/C3=C\C2CCCN2)ccc1O (centres undefined)
Criterion not met

Check the entry `COc1cc(-c2ccc3c(c2)NC(=O)/C3=C\c2[nH]c(C)cc2C)ccc1O` : does pIC50 equal or exceed 6?
Criterion met

Record `COc1cc(-c2ccc3c(c2)/C(=C/c2ccc[nH]2)C(=O)N3)ccc1O` ; criterion: pIC50 no lower than 6. Met?
Criterion not met

Dear colleague, could you confirm whether `Cc1ccc(-c2ccc3c(c2)NC(=O)/C3=C\c2cc[nH]c2)cc1` has pIC50 at or above 6?
Criterion not met

Has `O=C1Nc2cc(-c3ccc(O)cc3)ccc2/C1=C/c1cc[nH]c1` a recorded pIC50 greater than or equal to 6?
Criterion met

Does the compound `COc1cc(-c2ccc3c(c2)/C(=C/c2c[nH]c4c(C)cccc24)C(=O)N3)ccc1O` have recorded pIC50 that is 6 or more?
Criterion not met

Hi team, for `COc1cc(-c2ccc3c(c2)NC(=O)/C3=C\c2c[nH]c3nc(C#N)ccc23)ccc1O` , is the recorded pIC50 at or above 6?
Criterion met
